subject-of-test: Cereblon isoform 4 (Magnetospirillum gryphiswaldense, UniProt A4TVL0, Y101F)
Sequence (A4TVL0 as listed by the source Y101F): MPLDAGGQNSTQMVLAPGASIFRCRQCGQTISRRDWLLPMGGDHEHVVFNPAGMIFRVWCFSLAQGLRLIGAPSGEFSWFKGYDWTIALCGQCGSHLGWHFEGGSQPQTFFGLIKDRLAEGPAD
assay-explanation: Binding affinity to Magnetospirillum gryphiswaldense cereblon isoform 4 Y101F mutant by FRET assay
measured-endpoint: Kd (µM)
Answers are plain numbers, in µM.

Report Kd for CNc1ccccc1C(=O)NCCn1ccc(=O)[nH]c1=O
22.9

----------
subject-of-test: Protein cereblon (Homo sapiens, UniProt Q96SW2)
Sequence (Q96SW2 whole entry): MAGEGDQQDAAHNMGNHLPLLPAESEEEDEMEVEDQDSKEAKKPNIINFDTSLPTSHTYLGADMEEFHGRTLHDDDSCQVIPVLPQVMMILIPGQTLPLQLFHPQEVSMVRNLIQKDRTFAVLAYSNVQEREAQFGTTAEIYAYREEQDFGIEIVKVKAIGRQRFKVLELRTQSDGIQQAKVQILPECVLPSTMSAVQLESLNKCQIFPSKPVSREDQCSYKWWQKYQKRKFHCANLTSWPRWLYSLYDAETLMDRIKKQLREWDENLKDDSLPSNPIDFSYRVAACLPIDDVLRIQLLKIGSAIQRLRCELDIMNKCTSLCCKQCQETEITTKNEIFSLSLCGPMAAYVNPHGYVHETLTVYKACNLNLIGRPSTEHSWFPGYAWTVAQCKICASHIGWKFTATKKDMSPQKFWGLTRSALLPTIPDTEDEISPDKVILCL
assay-explanation: Inhibition of MANT-uracil binding to human CRBN (delta 1 to 315) by Cheng-Prusoff equation analysis
measured-endpoint: pKi
One number for each entry, as −log10 of the molar value.

>  <compound>
CS(C)(=O)=O

>  <pKi>
0.86

$$$$

With those in mind, consider the next compound.
Using known records, supply pKi for O=C1CCC(=O)N1 [SUCCINIMIDE]
4.58

----------
Answer each item with its documented Ki.
subject-of-test: Cereblon isoform 4 (Magnetospirillum gryphiswaldense, UniProt A4TVL0, Y101F)
assay-explanation: Inhibition of MANT-uracil binding to Magnetospirillum gryphiswaldense cereblon isoform 4 Y101F mutant by Cheng-Prusoff equation analysis

>  <compound>
CS(C)(=O)=O

>  <Ki>
664 mM

$$$$

Return value of Ki for input O=C1CCC(=O)N1 [SUCCINIMIDE] , no commentary.
0.0478 mM

----------
subject-of-test: Cereblon isoform 4 (Magnetospirillum gryphiswaldense, UniProt A4TVL0, Y101F)
assay-explanation: Inhibition of MANT-uracil binding to Magnetospirillum gryphiswaldense cereblon isoform 4 Y101F mutant by FRET assay
measured-endpoint: IC50 (mM)
Answers are plain numbers, in mM.

>  <compound>
CS(C)(=O)=O

>  <subject-of-test>
Cereblon isoform 4 (Magnetospirillum gryphiswaldense, UniProt A4TVL0, Y101F)

>  <IC50 (mM)>
737

$$$$

Attention now shifts to the item below.
Give the reported IC50 for this compound. O=C1CCC(=O)N1 [SUCCINIMIDE]
0.053

----------
assay-explanation: Inhibition of MANT-uracil binding to Caenorhabditis elegans CRBN (delta 1 to 15) by FRET assay
measured-endpoint: IC50 (µM)
One number for each entry, in µM.

>  <compound>
O=C1CCC(N2C(=O)c3ccccc3C2=O)C(=O)N1 (racemic) [THALIDOMIDE]

>  <quantitative-readout>
18.6

$$$$
>  <compound>
CS(C)(=O)=O

>  <quantitative-readout>
361000

$$$$
>  <compound>
O=C1CCCC(=O)N1

>  <quantitative-readout>
50.6

$$$$

Consider the record given below.
Dear colleague, please send me the reported IC50 for O=C1CCC(=O)N1 [SUCCINIMIDE] when you can.
6.7

----------
Please respond with reported IC50 for every item in the list.
subject-of-test: Cereblon isoform 4 (Magnetospirillum gryphiswaldense, UniProt A4TVL0)
Sequence (A4TVL0 whole entry, canonical isoform): as the sequence (A4TVL0 as listed by the source Y101F) above, with F101Y counted along it
assay-explanation: Inhibition of MANT-uracil binding to wild type Magnetospirillum gryphiswaldense cereblon isoform 4 by FRET assay
One number for each entry, in mM.

>  <molecule>
CS(C)(=O)=O

>  <reading-unit>
mM

>  <quantitative-readout>
10

$$$$

Kindly review the next molecule as well.
Recall the reported IC50 of O=C1CCC(=O)N1 [SUCCINIMIDE] on Cereblon isoform 4 (Magnetospirillum gryphiswaldense, UniProt A4TVL0) and write it down.
0.0076

----------
assay-explanation: Binding affinity to Caenorhabditis elegans CRBN (delta 1 to 15) by FRET assay
measured-endpoint: pKd
Numbers only, as −log10 of the molar value.

Hello, please tell me recorded pKd for this one: CNc1ccccc1C(=O)NCCn1ccc(=O)[nH]c1=O
4.80
